# assay system: NVPro (Norovirus)
# Sequence (Q83883 1101-1281): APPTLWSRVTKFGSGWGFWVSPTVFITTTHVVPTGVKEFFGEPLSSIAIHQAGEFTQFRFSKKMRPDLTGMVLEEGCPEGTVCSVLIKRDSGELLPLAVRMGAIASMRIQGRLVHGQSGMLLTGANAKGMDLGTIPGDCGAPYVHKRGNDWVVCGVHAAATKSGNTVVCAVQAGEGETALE
# measurement protocol: Inhibition of recombinant NVPro
# Format: biochemical
# study conditions: NVPro, ratio of Ki vs compound 1
Non-standard residues stand in square brackets, D forms with d. Residues, ends and D or L forms follow the SMILES beside them. *: point of attachment. Cbz = O=C(OCc1ccccc1)*; Dap = NC[C@H](N)C(=O)O
# key: entry, value: fold less active than compound 1

compound: CC(=O)[C@H](CCC(=O)N(C)C)NC(=O)[C@H](Cc1ccccc1)NC(=O)[C@H](CC(C)C)NC(=O)OCc1ccccc1
fold less active than compound 1: 1,200 fold

compound: CC(=O)N[C@@H](CC(C)C)C(=O)N[C@@H](Cc1ccccc1)C(=O)N[C@H](C=O)CCC(=O)N(C)C [compound 9] (Ac-Leu-Phe-Glu(NMe2)-aldehyde)
fold less active than compound 1: > 300 fold

compound: CC(=O)NC[C@@H](C=O)NC(=O)[C@H](Cc1ccccc1)NC(=O)[C@H](CC(C)C)NC(=O)OCc1ccccc1 [compound 3] (Cbz-Leu-Phe-[Dap](Ac)-aldehyde)
fold less active than compound 1: ~ 12 fold

Now turn to the next compound.
Measured fold less active than compound 1, CNC(=O)CC[C@@H](C=O)NC(=O)[C@H](Cc1ccccc1)NC(=O)[C@H](CC(C)C)NC(=O)OCc1ccccc1 [compound 14] (Cbz-Leu-Phe-Glu(NHMe)-aldehyde) : 42 fold
